measurement.target: Neprilysin (Oryctolagus cuniculus, UniProt P08049)
Sequence (P08049 whole entry): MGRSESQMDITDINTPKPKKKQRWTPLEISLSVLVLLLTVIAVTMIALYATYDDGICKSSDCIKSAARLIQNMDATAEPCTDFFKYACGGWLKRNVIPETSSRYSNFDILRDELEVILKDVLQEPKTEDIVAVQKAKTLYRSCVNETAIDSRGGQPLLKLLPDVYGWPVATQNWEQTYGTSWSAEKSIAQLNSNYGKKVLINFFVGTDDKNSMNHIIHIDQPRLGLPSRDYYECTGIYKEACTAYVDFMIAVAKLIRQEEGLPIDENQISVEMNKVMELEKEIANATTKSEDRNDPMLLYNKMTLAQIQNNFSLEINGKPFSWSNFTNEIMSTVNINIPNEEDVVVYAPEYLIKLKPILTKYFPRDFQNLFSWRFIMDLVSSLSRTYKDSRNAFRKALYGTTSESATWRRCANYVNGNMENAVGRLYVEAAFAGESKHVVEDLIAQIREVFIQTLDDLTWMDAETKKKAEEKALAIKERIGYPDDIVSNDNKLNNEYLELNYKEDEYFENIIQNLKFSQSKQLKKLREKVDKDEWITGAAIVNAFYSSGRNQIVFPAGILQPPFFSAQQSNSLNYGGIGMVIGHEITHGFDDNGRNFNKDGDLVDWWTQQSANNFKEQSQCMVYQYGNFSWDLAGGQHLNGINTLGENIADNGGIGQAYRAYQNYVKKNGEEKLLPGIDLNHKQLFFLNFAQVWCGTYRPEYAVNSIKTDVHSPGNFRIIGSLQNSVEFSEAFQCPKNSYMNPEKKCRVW
readout.type: Ki (nM)
The response must be a number in nM with no trailing unit.

| compound | unit.spec | value.measured |
| --- | --- | --- |
| O=C(O)[C@H](Cc1c[nH]c2ccccc12)NC(=O)[C@H](CS)[C@@H]1CCc2cc(Br)ccc21 | nM | 13 |
| O=C(O)[C@H](Cc1c[nH]c2ccccc12)NC(=O)[C@@H](CS)[C@H]1CCc2cc(Br)ccc21 | nM | 3.8 |
| COc1ccc2c(c1)CCC2C(CS)C(=O)NC(Cc1c[nH]c2ccccc12)C(=O)O (stereo unspecified) | nM | 5 |
| COc1cc2c(cc1OC)C(C(CS)C(=O)NC(Cc1c[nH]c3ccccc13)C(=O)O)CC2 (stereo unspecified) | nM | 78 |
| COc1ccc2c(c1)C(C(CS)C(=O)NC(Cc1c[nH]c3ccccc13)C(=O)O)CC2 (stereo unspecified) | nM | 11 |
| COc1ccc2c(c1)CC[C@@H]2[C@H](CS)C(=O)N[C@@H](Cc1c[nH]c2ccccc12)C(=O)O | nM | 2.7 |
| O=C(O)[C@H](Cc1c[nH]c2ccccc12)NC(=O)[C@H](CS)[C@H]1CCc2cc(Br)ccc21 | nM | 1.8 |
| CCOc1ccc2c(c1)CCC2C(CS)C(=O)NC(Cc1c[nH]c2ccccc12)C(=O)O (stereo unspecified) | nM | 8 |
| COc1ccc2c(c1)CC[C@H]2[C@@H](CS)C(=O)N[C@@H](Cc1c[nH]c2ccccc12)C(=O)O | nM | 15 |
| COc1ccc2c(c1)CC[C@H]2[C@H](CS)C(=O)N[C@@H](Cc1c[nH]c2ccccc12)C(=O)O | nM | 30 |

Now, please, on to the next compound.
// returns reported Ki for input COc1ccc2c(c1)CC[C@@H]2[C@@H](CS)C(=O)N[C@@H](Cc1c[nH]c2ccccc12)C(=O)O
1.3
